- Tested Target: T1, MICA*008 on MEL-JUSO cells (human, UniProt Q29983 24-317); also: test concentration or dose not given here
- T1 chain: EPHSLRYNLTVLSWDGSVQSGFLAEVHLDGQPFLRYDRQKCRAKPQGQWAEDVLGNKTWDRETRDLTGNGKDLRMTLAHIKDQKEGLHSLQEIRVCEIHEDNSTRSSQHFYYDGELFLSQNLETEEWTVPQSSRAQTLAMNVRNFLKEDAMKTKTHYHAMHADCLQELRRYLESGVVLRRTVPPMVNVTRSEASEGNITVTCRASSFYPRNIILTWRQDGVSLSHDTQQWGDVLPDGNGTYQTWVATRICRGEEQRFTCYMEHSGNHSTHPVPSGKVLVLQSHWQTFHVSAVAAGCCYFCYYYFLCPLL
- Protocol Notes: cell-based or functional assay
Endpoint Name: % Inhibition (%)
State just the number; it will be interpreted in %.

Use the examples below as a reference point.
- 1D5v18 (antibody, IgG1, V domains shown, humanized variant of 1D5) VH: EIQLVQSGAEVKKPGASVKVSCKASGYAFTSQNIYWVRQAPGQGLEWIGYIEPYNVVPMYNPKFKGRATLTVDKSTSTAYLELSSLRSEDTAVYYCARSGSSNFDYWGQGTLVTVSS VL: DIQLTQSPSSLSASVGDRVTITCSASSSISSHYLHWYQQKPGKSPKLLIYRTSNLASGVPSRFSGSGSGTDFTLTISSLQPEDFATYYCQQGSSLPLTFGQGTKVEIK: 64
- 1D5v20 (antibody, IgG1, V domains shown, humanized variant of 1D5) VH: EIQLVQSGAEVKKPGASVKVSCKASGYAFTSQNIYWVRQAPGQGLEWIGYIEPYNVVPMYNPKFKGRVTLTVDKSTSTAYLELSSLRSEDTAVYYCARSGSSNFDYWGQGTLVTVSS VL: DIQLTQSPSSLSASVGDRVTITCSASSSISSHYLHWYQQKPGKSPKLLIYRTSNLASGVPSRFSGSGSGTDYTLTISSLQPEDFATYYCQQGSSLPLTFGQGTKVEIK: 56
- 13A9 (m IgG2a, CHO) (antibody, V domains shown) VH: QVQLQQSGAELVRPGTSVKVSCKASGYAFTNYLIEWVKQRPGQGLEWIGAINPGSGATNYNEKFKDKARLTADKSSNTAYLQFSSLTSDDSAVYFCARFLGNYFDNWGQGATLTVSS VL: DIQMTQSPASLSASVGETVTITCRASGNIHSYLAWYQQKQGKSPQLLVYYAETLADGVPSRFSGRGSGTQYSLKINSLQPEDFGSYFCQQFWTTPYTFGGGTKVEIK: 29

In the following, a different binder is considered.
Return reported % Inhibition. Input binder: 1D5v3 (antibody, IgG1, V domains shown, humanized variant of 1D5) VH: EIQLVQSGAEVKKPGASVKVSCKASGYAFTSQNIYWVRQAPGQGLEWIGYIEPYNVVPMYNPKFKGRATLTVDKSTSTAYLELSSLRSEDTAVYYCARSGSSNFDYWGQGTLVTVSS VL: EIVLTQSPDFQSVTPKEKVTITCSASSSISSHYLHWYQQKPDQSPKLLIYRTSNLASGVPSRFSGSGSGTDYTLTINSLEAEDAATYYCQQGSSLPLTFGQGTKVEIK
50

Data origin: patent US20200055939A1
